// MIC lookup, one value per entry
# Test system: Coxiella burnetii
# PROTOCOL SUMMARY: Antimicrobial activity against compound-susceptible Coxiella burnetii isolate CP7 obtained from patient with acute Q fever infected in african green monkey Vero cells after 24 hrs by shell vial assay
# Type: functional
# RUN CONDITIONS: isolate CP7, 24 h
Write the value in µg/mL as a bare number.

Below: 3 compounds and their reported MIC.
- COMPOUND: "CC[C@H]1OC(=O)[C@H](C)[C@@H](O[C@H]2C[C@@](C)(OC)[C@@H](O)[C@H](C)O2)[C@H](C)[C@@H](O[C@@H]2O[C@H](C)C[C@H](N(C)C)[C@H]2O)[C@](C)(OC)C[C@@H](C)C(=O)[C@H](C)[C@@H](O)[C@]1(C)O"
  VAL: 2
- COMPOUND: "CN(C)c1cc(NC(=O)CNC(C)(C)C)c(O)c2c1C[C@H]1C[C@H]3[C@H](N(C)C)C(O)=C(C(N)=O)C(=O)[C@@]3(O)C(O)=C1C2=O"
  VAL: 0.25
- COMPOUND: "CC1COc2c(N3CCN(C)CC3)c(F)cc3c(=O)c(C(=O)O)cn1c23 (centres undefined)"
  VAL: 1

Next, consider the following compound.
Entry C[C@H]1c2cccc(O)c2C(=O)C2=C(O)[C@]3(O)C(=O)C(C(N)=O)=C(O)[C@@H](N(C)C)[C@@H]3[C@@H](O)[C@@H]21.O — recorded MIC = 1
